test: NCI Yeast Anticancer Drug Screen. Data for the bub3 strain (AID 167); details: S. cerevisiae bub3 mutant strain, at 50.0 µM, active compounds read high
About 79,000 compounds went through this panel and 15% of them were active in at least one assay; those are over-represented in the sample as a whole.
READOUT_LABEL: growth inhibition (%)
Give your result in % as a bare value.

Consider the molecule shown here: CCC(C(=O)O)c1ccc(OCc2ccccc2)cc1 (stereo not drawn) What is its recorded growth inhibition?
8.05

Next molecule up: Cc1ccc2c(ccc3ccccc32)n1
50.5

Next: CCCC1c2c(ccc3ccccc23)Oc2ccc3ccccc3c21
-13.7

Now try O=C1C=CC(=O)N1Cc1ccco1 .
10.1

Next entry: COc1cc2ccc1OCc1cccc(n1)COc1ccc(cc1OC)C=NCCNCCN=C2
-17.3

Now give it for O=C(O)c1ccc(CS(=O)c2ccccc2)c([N+](=O)[O-])c1 (stereo not drawn) too.
-4.9

Repeat for the following molecule: CS/C(=C\c1ccc(C(=O)c2ccc(C)cc2)n1C)S(C)=O (stereo not drawn)
-0.7

Another molecule: CCCCCCCCCc1ccc(COCCCC)cc1
49.5

* * *

Assignment: determine reported growth inhibition for the given compounds.
test: NCI Yeast Anticancer Drug Screen. Data for the rad50 strain (AID 155);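 note: 0% = growth of vehicle-only cultures of the same strain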; details: S. cerevisiae rad50 strain growth inhibition; at 50.0 µM; active compounds read high
This is part of a sample that, as a whole, favours compounds with a hit. Of some 79,000 tested, about 15% had one in any assay.
Reply numerically in %, unit not repeated.

Would you kindly share the measured growth inhibition for CC1OS(=O)OC1C (stereo unspecified) ?
-20.9

Continue with COC(=O)c1nc(N)nc(C(=O)OC)c1C(=O)c1ccc(F)cc1
8.55

What would you report for CCCCCc1cc[n+](CC(=O)c2ccccc2)cc1 ?
4.45

Request: O=C(O)CCSSCCCS(=O)O
-26.6

And the next one, O=C1C2=C(Nc3cc(Cl)ccc3N2)OC1c1c[nH]c2ccc(COc3ccccc3)cc12 (stereo unspecified) ?
-22.4

Repeat with Nc1c(Br)c(Br)cc2c1-c1ccc(Br)cc1C2
8.2

* * *

assay: NCI Yeast Anticancer Drug Screen. Data for the sgs1 mgt1 strain (AID 161);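 note: 0% = growth of cultures given vehicle only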; conditions: S. cerevisiae sgs1 mgt1 strain, at 50.0 µM, active compounds read high
The panel holds about 79,000 compounds, 15% with a hit somewhere; the sample as a whole holds those more often.
READOUT_LABEL: growth inhibition (%)
Please reply with the bare figure in % and do not write the unit itself.

Field request: growth inhibition | item: Fc1ccc(NC(=S)Nc2ccc(F)cc2)cc1
-10.7

Thanks! And CCCCCCC(C)CC1=C(O)c2ccccc2C(=O)C1=O (centres undefined) ?
-1.9

What do you get for O=C(NC(=O)c1c(F)cccc1F)Nc1ccc(C(O)(C(F)(F)F)C(F)(F)F)cc1 ?
10.2

Consider next the compound C[N+](C)(C)CC(=O)N/N=C(\C(=O)NC1=C(Cl)C(=O)c2ccccc2C1=O)C(C#N)c1csc(-c2ccc([N+](=O)[O-])cc2)n1 (centres undefined) in the same way.
-5.8

* * *

assay: NCI Yeast Anticancer Drug Screen. Data for the cln2 rad14 strain (AID 165);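 note: 0% = growth equal to vehicle treated cultures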; details: S. cerevisiae cln2 rad14 strain, at 50.0 µM, active compounds read high
About 79,000 compounds went through this panel and 15% of them were active in at least one assay; those are over-represented in the sample as a whole.
I'd be grateful if you could share measured growth inhibition for these entries.
Respond numerically; units are % and should not be typed.

Any idea what its growth inhibition is? The molecule is CC1=C(OCCCl)C2CC1C1C(=O)N(c3ccccc3)C(=O)C21 (centres undefined)
-0.4

Same read-out for COc1cc(-c2c(C)oc(C)c2C(C)=O)ccc1OCc1ccccc1 ?
11.8

Query CC(=O)c1ccc(N=NN(C)C)cc1 next
-18.4

Same thing, different molecule: O=C(O)C1CCOCC1
4
